meta.source: patent US8575178B2

Below, each entry is listed with its recorded inhibition at 10 µM.
- tested on: human TRPA1 (Homo sapiens)
- Construct: expressed in transfected cells; host or cells: CHO cells (G-418 selection)
- Sequence (O75762 whole entry): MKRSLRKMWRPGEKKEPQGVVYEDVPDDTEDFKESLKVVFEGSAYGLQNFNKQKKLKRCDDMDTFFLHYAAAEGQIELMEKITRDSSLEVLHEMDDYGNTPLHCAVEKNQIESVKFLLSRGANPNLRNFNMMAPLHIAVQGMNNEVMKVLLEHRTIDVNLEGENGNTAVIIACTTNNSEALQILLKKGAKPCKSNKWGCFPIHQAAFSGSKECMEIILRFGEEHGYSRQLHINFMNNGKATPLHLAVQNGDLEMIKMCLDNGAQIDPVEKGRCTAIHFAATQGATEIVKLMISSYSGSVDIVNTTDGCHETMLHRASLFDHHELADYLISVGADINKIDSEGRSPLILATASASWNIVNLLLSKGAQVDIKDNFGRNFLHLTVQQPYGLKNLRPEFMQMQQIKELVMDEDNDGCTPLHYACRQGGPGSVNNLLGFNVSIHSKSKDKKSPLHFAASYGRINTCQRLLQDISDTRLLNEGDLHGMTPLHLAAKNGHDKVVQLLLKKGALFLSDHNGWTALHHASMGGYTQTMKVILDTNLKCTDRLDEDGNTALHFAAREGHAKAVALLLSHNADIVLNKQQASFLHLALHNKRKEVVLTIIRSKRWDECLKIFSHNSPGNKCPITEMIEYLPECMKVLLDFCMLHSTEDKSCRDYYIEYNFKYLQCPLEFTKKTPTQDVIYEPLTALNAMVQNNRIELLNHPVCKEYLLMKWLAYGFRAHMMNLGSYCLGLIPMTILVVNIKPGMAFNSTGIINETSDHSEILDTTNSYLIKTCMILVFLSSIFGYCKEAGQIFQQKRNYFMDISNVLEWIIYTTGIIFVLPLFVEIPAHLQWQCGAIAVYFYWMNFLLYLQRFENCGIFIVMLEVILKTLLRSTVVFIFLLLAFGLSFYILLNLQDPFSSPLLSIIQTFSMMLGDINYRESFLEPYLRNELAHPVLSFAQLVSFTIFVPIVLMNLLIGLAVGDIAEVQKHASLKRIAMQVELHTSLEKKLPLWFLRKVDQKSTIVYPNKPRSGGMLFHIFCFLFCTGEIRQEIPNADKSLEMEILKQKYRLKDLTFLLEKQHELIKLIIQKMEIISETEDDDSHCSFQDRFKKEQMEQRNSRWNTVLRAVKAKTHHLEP
- assay explanation: 45Calcium uptake assay, inhibition of AITC induced calcium uptake in human TRPA1 expressing CHO cells
- Type: cell-based
- setup conditions: 10.0 μM compound, AITC 30 μM, read-out: human TRPA1 Percentage inhibition at 10.0 μM
Numbers only; they are read as %.

// worked examples, inhibition at 10 µM included
[[record]]
compound = "Cn1c(=O)c2c(CC(=O)Nc3nc(-c4ccc(C(F)(F)F)cc4F)cs3)nsc2n(C)c1=O [Example 21]"
observable = "inhibition at 10 µM"
value_unit = "%"
measured = 100

[[record]]
compound = "Cn1c(=O)c2c(CC(=O)Nc3nc(-c4ccc(Cl)cc4)cs3)nsc2n(C)c1=O [Example 12]"
observable = "inhibition at 10 µM"
value_unit = "%"
measured = 99.2

[[record]]
compound = "Cn1c(=O)c2c(CC(=O)Nc3nc(-c4ccc(OC(F)(F)F)c(F)c4)cs3)snc2n(C)c1=O [Example 7]"
observable = "inhibition at 10 µM"
value_unit = "%"
measured = 99.5


Challenge: Look up and state reported inhibition at 10 µM for Cn1c(=O)c2c(CC(=O)Nc3nc(-c4cccc(C(F)(F)F)c4F)cs3)snc2n(C)c1=O [Example 5]
Response given: 99.1

Challenge: Look up and state reported inhibition at 10 µM for Cn1c(=O)c2c(CC(=O)Nc3nc(-c4ccc(F)c(C(F)(F)F)c4F)cs3)nsc2n(C)c1=O [Example 37]
Response given: 99.3

Challenge: Look up and state reported inhibition at 10 µM for Cn1c(=O)c2c(CC(=O)Nc3nc(-c4ccc(F)c(OC(F)(F)F)c4)cs3)snc2n(C)c1=O [Example 3]
Response given: 99.5

Challenge: Look up and state reported inhibition at 10 µM for Cn1c(=O)c2c(CC(=O)Nc3nc(-c4ccc(C(F)(F)F)c(F)c4)cs3)snc2n(C)c1=O [Example 4]
Response given: 100
